Tested on: PBMC
protocol details: ELISPOT (IFNγ, IL-5, IL-10, IL-17, IL-21) of PBMC expanded 14 days with Bla g extract, then stimulated with peptides or peptide pools
Format: cell-based, human
Parameters: key: spot forming cells (SFC) per 10^6 PBMC
condition context: non-redundant epitopes; sensitized donors
Record y whenever Average Magnitude of Response is at 8 or higher; record n when lower.

THQFNVAGSVTVDKT; n
KEFANVVRVVRHTSK; n
RCGRSMQGYPFNPCL; y
NVIYSQNSFLPRATT; n
GIRIYVDVVLNQMSG (listed as Blattella germanica); y

Record FSQMYHAQLAFSTAF ; criterion: Average Magnitude of Response no lower than 8. Met? n

Would you say LGHTVCLSGFMGIDL shows Average Magnitude of Response at minimum 8? n

Decide: is the reported value of Average Magnitude of Response for NGGYLAAGKLTWADF (listed as Blattella germanica) equal to or greater than 8? y

Decide: is the reported value of Average Magnitude of Response for LKNYQLDSELRIKAF equal to or greater than 8? n

Does Average Magnitude of Response meet or surpass 8 for AAVAYLQSDEFETIV ? n

Confirm if Average Magnitude of Response reported for the sequence WCNEEDHLRIISMQM is 8 or above. y

Check the entry KDDWENLEIDMIVDT : does Average Magnitude of Response equal or exceed 8? y

Could you tell me if the measured Average Magnitude of Response of KAIFIKCDVTNIPEF reaches 8 or more? y

Please tell me: is the sequence TGILYKARLSLDRNE at or over 8 in terms of Average Magnitude of Response? n

Would you say KLGDKEMIQHYTLDQ shows Average Magnitude of Response at minimum 8? n

Could you verify whether the entry KNRTTIRGRTKFEGN (listed as Blattella germanica) shows Average Magnitude of Response of no less than 8? y

Hi team, for LNTYYSYYYFNYPTF , is the recorded Average Magnitude of Response at or above 8? n

----------
Test system: PBMC
protocol details: ELISPOT (IFNγ, IL-5, IL-10, IL-17, IL-21) of PBMC expanded 14 days with Bla g extract, then stimulated with peptides or peptide pools
Format: cell-based, human
Design: key: spot forming cells (SFC) per 10^6 PBMC
condition context: non-redundant epitopes; sensitized donors
# reported Average Magnitude of Response; entries follow

YLGKQFGLSGKDDWE; 22.6
LNDYILPAPYEIYPW; 3.0
CATDTLANEDCFRHE; 3.2
DVLDIGGLKVQKQTF; 3.5
LIPVDQIIAIATDYL; 9.8
DRRGEMFYYTRQQLY; 3.5
GASILTYKTSKLYKM; 19.3
KFEGNKFTIDYNDKG; 14.2
IHENLIVTSPFRPWW; 9.3
KLYKMAVAFMLAYPY; 15.8

Note Average Magnitude of Response for the sequence shown: HDDRLGFLTFCPTNL (listed as Blattella germanica) 83.1

Indicate the recorded Average Magnitude of Response value for this sequence: KIGEYKNMIAEGIID 6.2

Dear colleague, please send me the reported Average Magnitude of Response for GQEYTFYVIVTPYAK when you can. 3.2

Hello, please tell me recorded Average Magnitude of Response for this one: MNITGSINLMFSQMY 7.6

// fetch Average Magnitude of Response given entry KAIEEDLKHFNLKYE 5.7

Supply reported Average Magnitude of Response belonging to this sequence: LDYLNHMAKEDLVAN 13.0

Provide only the value of recorded Average Magnitude of Response for QIIAIATDYLANDAE 7.5

Give Average Magnitude of Response for the following sequence: PNLKPSMPFGKTPVL 4.2

Please supply the value of reported Average Magnitude of Response for the item HGRTFSSLFQVANQY 8.4

Name the recorded Average Magnitude of Response of the item QVYRRLVTAVNDIEK in your answer. 44.1

Report Average Magnitude of Response for MGVQKFWAFDNTTFS 7.3

Identify measured Average Magnitude of Response associated with VPIMNIYSAFEFDPN 18.5

Dear colleague, please send me the reported Average Magnitude of Response for VLEKLEAGFAKLAAS (listed as Blattella germanica) when you can. 65.5

Write down Average Magnitude of Response measured for item VVFDTGSSNLWVPSK 4.7

Return reported Average Magnitude of Response. Input sequence: YHYDADENSKQKKWD 3.7
